Measured Target: T1, AtbZIP63 (Arabidopsis thaliana, UniProt B9DGI8 1-314)
T1 sequence: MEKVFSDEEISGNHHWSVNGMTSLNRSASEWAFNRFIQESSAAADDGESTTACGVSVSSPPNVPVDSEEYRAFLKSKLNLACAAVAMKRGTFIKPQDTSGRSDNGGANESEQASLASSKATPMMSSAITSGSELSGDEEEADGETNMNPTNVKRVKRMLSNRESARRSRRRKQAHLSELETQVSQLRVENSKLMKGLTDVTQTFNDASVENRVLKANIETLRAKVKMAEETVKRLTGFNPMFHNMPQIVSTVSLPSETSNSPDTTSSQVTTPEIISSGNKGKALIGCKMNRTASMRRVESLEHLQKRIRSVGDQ
Assay Summary: DPI-ELISA; DPI-ELISA, streptavidin 384-well plate, 1-2 pmol biotinylated dsDNA per well, crude native E. coli extract, anti-His detection; buffer as in Brand et al. [46],; high values mean tight binding
Particulars: tags: C-terminal His (pET-DEST42); chain copies: 2; label: 5' biotin on forward strand
We begin with a simple list: items and their reported binding signal.

Binder	binding signal
153 (dsDNA) DNA 1: AAAAAATGTATTCGTGTCCACTCCATAAAA DNA 2: TTTTATGGAGTGGACACGAATACATTTTTT	1.89 relative normalized absorbance
109 (dsDNA) DNA 1: AAAAAATACGTCTACGTGGTTGTCGTAAAA DNA 2: TTTTACGACAACCACGTAGACGTATTTTTT	2.98 relative normalized absorbance
276 (dsDNA) DNA 1: AAAAAACATCGCTGTCGTTGACGTTGAAAA DNA 2: TTTTCAACGTCAACGACAGCGATGTTTTTT	2.02 relative normalized absorbance
223 (dsDNA) DNA 1: AAAAAAGGCCACGGTAACCCCTTTTGAAAA DNA 2: TTTTCAAAAGGGGTTACCGTGGCCTTTTTT	2.06 relative normalized absorbance
110 (dsDNA) DNA 1: AAAAAAGCGTAAGCCTTGACAGTCGTAAAA DNA 2: TTTTACGACTGTCAAGGCTTACGCTTTTTT	1.94 relative normalized absorbance
